Please provide measured pSYK (µM) for the entries that follow.
- System name: T1, TREM2 on human iPSC macrophages (human, UniProt Q9NZC2 19-230)
- T1 sequence (looked up): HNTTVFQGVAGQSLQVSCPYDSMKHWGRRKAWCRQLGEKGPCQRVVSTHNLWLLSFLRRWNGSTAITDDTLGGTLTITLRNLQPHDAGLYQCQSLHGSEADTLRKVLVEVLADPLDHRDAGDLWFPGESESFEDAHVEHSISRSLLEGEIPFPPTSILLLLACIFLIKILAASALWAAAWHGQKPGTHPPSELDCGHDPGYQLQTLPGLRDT
- Assay method text: cell-based or functional assay
*1 amine or outer side, *2 acyl side, *3 side chain or, on linkers, in order; H or OH if unused. Bridges are numbered along the chain shown (N, C = ends). Where no end group is shown, it is not given here. TATA = O=C(CC[*:1])N1CN(C(=O)CC[*:2])CN(C(=O)CC[*:3])C1
Give bare numbers, in µM.

Consider the worked cases shown below.
[[record]]
binder = "ACTNYCFWPFQSCA (linker 2-6-13 via TATA) [BCY19780]"
readout_label = "pSYK (µM)"
measured_number = 12.6

[[record]]
binder = "CSEYCFWPXYHC (N-terminal acetyl (Ac); CiSEYCiiFWP[1Nal]YHCiii; Ci, Cii, Ciii on TATA scaffold) [BCY19668]"
readout_label = "pSYK (µM)"
measured_number = 12.7

[[record]]
binder = "ACSEYCFWPFYHCA (linker 2-6-13 via TATA) [BCY16054]"
readout_label = "pSYK (µM)"
measured_number = 10.7

[[record]]
binder = "CSEYCFXPFYHC (N-terminal acetyl (Ac); CiSEYCiiF[6ClTrp]PFYHCiii; Ci, Cii, Ciii on TATA scaffold) [BCY19671]"
readout_label = "pSYK (µM)"
measured_number = 154


We next turn to a different binder, shown below.
Q) Please report the recorded pSYK (µM) for ACTNYCFWPFQYCA (linker 2-6-13 via TATA) [BCY19779] .
A) 2.5
